B1: 2M8U (parent)
chain: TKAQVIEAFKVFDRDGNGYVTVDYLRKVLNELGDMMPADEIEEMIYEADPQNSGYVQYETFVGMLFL

Variants of: B1
Assay: folding stability dG (cDNA display proteolysis); higher = more stable
Settings: PBS, room temperature
Label rule, in plain words: folding stability dG of 3 kcal/mol and up is Condition met, under 3 kcal/mol is Condition not met.

Take a look at these entries with their results.
{"VARIANT ID": "P37S", "LABEL CLASS": "Condition met"}
{"VARIANT ID": "K10T", "LABEL CLASS": "Condition not met"}
{"VARIANT ID": "Y58A", "LABEL CLASS": "Condition not met"}
{"VARIANT ID": "D49C", "LABEL CLASS": "Condition not met"}

Q: Does D49H have a reported folding stability dG of at least 3 kcal/mol?
Result: Condition not met

Q: Repeat with D23F
Result: Condition met

Q: Repeat with V28S
Result: Condition not met

Q: Repeat with F12W
Result: Condition met

Q: Repeat with N52T
Result: Condition met

Q: Repeat with Q4D
Result: Condition met

FYI, the data here is from the MegaScale stability set (Tsuboyama et al. 2023).
